molecular target: Histamine H1 receptor (Cavia porcellus); experiment: Binding affinity against H1 receptor of guinea pig by the displacement of [3H]mepyramine, bound to membranes of CHO cells; format: cell membranes
Sequence (P31389 whole entry): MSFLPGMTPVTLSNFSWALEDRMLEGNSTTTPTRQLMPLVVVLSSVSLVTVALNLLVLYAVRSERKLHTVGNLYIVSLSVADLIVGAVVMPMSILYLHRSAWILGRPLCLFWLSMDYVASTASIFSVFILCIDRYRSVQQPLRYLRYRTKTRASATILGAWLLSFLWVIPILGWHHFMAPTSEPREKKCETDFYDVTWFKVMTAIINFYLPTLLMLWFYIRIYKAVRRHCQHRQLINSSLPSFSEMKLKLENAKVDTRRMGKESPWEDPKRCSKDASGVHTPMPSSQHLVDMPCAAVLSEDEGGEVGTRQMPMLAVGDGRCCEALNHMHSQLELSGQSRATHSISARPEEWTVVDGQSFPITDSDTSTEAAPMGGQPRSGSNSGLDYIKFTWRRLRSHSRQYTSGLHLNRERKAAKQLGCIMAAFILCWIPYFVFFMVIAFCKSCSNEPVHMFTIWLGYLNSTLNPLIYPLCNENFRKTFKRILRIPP
measurement.type: Ki

NCCCCCc1c[nH]cn1: 126 µM
NCCCc1c[nH]cn1: > 1000 µM
NCCCCCCc1cnc[nH]1: 126 µM
NCc1c[nH]cn1: > 1000 µM
NCCCCCCCCc1cnc[nH]1: 2.51 µM

Dear colleague, please send me the reported Ki for "NCCCCCCCCCCc1c[nH]cn1" when you can.
0.631 µM

###

biological target: Histamine H2 receptor (Homo sapiens); assay: Binding affinity against human H2 receptor by the displacement of [125I]iodoaminopotentidine, bound to membranes of CHO cells.; type: cell membranes
Sequence (P25021 whole entry): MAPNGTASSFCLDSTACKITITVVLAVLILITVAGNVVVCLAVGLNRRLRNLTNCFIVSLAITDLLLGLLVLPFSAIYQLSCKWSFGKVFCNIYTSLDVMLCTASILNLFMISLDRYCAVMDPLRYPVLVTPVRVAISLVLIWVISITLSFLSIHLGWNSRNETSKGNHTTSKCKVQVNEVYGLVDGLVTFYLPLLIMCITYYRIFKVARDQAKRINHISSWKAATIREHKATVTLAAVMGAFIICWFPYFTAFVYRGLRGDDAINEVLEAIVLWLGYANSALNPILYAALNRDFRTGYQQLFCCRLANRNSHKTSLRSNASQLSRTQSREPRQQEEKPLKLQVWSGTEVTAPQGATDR
measurement.type: pKi
Please report pKi as the negative decimal logarithm of the molar concentration, giving only the number.

# example entries with known answers
NCCCCCCCCCCc1c[nH]cn1: 4.70
NCCCCCCc1cnc[nH]1: 3.70
NCCCCCc1c[nH]cn1 [IMPENTAMINE]: 3.60

Dear colleague, please send me the reported pKi for "NCCCCCCCCc1cnc[nH]1" when you can.
4.50
